TARGET_OR_TEST_SYSTEM: T1, NACC1 BEN R429A (human, UniProt Q96RE7 341-477, R429A)
T1 sequence: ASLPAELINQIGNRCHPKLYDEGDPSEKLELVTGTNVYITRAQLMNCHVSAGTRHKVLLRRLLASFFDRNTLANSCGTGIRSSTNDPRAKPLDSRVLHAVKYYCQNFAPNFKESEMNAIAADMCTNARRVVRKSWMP
ASSAY_OVERVIEW: ITC; ITC: 20 mM Tris pH 7.5, 200 mM NaCl, 2 mM beta-mercaptoethanol, 20 C; EMSA: 20 mM Tris pH 7.0, 200 mM NaCl, 2 mM DTT, 4 C, 1.2% agarose in TAE
CONDITIONS: protein: recombinant; tags: His-SUMO or His-MBP, cleaved; blunt, self-complementary
ASSAY_ENDPOINT: pKd
Keep in mind that pKd stands for -log10 of concentration in molar terms.

Data request: Quick one: give measured pKd for 12-CATG (dsDNA) DNA 1: ATTACATGTAAT DNA 2: ATTACATGTAAT
Data returned: 4.46
